targetEntity: UniProt:Q01959
Sequence (Q01959 whole entry): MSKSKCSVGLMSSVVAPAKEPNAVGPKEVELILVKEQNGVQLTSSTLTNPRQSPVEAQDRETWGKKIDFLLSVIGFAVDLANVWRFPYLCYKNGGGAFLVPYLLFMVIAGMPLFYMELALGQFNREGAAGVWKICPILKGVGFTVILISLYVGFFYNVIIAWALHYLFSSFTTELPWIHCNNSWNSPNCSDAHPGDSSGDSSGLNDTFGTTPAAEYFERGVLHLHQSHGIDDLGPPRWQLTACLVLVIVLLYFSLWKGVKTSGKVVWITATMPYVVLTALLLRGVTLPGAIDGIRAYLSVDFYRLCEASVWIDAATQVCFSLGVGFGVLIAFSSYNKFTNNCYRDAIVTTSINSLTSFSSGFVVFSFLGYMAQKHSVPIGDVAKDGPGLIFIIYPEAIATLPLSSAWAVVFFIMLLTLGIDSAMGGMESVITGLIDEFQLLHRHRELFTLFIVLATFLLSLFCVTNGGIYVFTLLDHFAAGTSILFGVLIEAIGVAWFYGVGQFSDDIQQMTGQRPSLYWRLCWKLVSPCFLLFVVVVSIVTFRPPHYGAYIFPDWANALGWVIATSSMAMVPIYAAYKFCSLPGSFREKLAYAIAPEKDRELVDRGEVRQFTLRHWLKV
assayComment: Ability to inhibit [3H]mazindol binding to cloned human dopamine (DA) transporter
A collection of compounds and their measured Ki

These solved cases illustrate the format of a correct answer.
{"columns": ["compound", "result"],
 "data": [
  ["CNCC[C@H](Oc1ccc(O[C@@H]2O[C@H](C(=O)O)[C@@H](O)[C@H](O)[C@H]2O)c2ccccc12)c1cccs1", "3.51 µM"],
  ["CNCC[C@H](Oc1cccc2cc(O[C@@H]3O[C@H](C(=O)O)[C@@H](O)[C@H](O)[C@H]3O)ccc12)c1cccs1", "> 10 µM"],
  ["CNCC[C@H](Oc1cccc2c(O[C@@H]3O[C@H](C(=O)O)[C@@H](O)[C@H](O)[C@H]3O)c(O[C@@H]3O[C@H](C(=O)O)[C@@H](O)[C@H](O)[C@H]3O)ccc12)c1cccs1", "> 10 µM"]
]}

// switching to the query compound
Need Ki of CNCC[C@H](Oc1cccc2c(O)c(O)ccc12)c1cccs1 (stereo in doubt; form 1) , thanks.
> 10 µM
